B1: library; a variant is named by its letters at X, in order (parent)
chain: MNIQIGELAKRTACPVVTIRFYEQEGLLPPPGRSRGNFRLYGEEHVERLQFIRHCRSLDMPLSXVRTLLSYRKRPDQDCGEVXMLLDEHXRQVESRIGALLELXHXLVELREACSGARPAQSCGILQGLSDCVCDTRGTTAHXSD

- Variants of: B1
- procedureText: sfGFP reporter fluorescence (15 h) (µM FITC); higher = stronger transcriptional activation
- runConditions: library round: Round 3b; ligand: 1 µM Pb
sfGFP reporter fluorescence values for the variants below.
reportedMetric: sfGFP reporter fluorescence

{"monomerSequence": "MNIQIGELAKRTACPVVTIRFYEQEGLLPPPGRSRGNFRLYGEEHVERLQFIRHCRSLDMPLSDVRTLLSYRKRPDQDCGEVIMLLDEHARQVESRIGALLELVHELVELREACSGARPAQSCGILQGLSDCVCDTRGTTAHTSD", "reportedMetric": "sfGFP reporter fluorescence", "assayValue": 0.07}
{"monomerSequence": "MNIQIGELAKRTACPVVTIRFYEQEGLLPPPGRSRGNFRLYGEEHVERLQFIRHCRSLDMPLSKVRTLLSYRKRPDQDCGEVIMLLDEHIRQVESRIGALLELTHHLVELREACSGARPAQSCGILQGLSDCVCDTRGTTAHTSD", "reportedMetric": "sfGFP reporter fluorescence", "assayValue": 0.471}
{"monomerSequence": "MNIQIGELAKRTACPVVTIRFYEQEGLLPPPGRSRGNFRLYGEEHVERLQFIRHCRSLDMPLSKVRTLLSYRKRPDQDCGEVIMLLDEHIRQVESRIGALLELKHELVELREACSGARPAQSCGILQGLSDCVCDTRGTTAHRSD", "reportedMetric": "sfGFP reporter fluorescence", "assayValue": 0.149}
{"monomerSequence": "MNIQIGELAKRTACPVVTIRFYEQEGLLPPPGRSRGNFRLYGEEHVERLQFIRHCRSLDMPLSKVRTLLSYRKRPDQDCGEVIMLLDEHIRQVESRIGALLELVHELVELREACSGARPAQSCGILQGLSDCVCDTRGTTAHPSD", "reportedMetric": "sfGFP reporter fluorescence", "assayValue": 0.372}
{"monomerSequence": "MNIQIGELAKRTACPVVTIRFYEQEGLLPPPGRSRGNFRLYGEEHVERLQFIRHCRSLDMPLSKVRTLLSYRKRPDQDCGEVFMLLDEHIRQVESRIGALLELTHALVELREACSGARPAQSCGILQGLSDCVCDTRGTTAHPSD", "reportedMetric": "sfGFP reporter fluorescence", "assayValue": 0.302}
{"monomerSequence": "MNIQIGELAKRTACPVVTIRFYEQEGLLPPPGRSRGNFRLYGEEHVERLQFIRHCRSLDMPLSDVRTLLSYRKRPDQDCGEVNMLLDEHARQVESRIGALLELTHALVELREACSGARPAQSCGILQGLSDCVCDTRGTTAHTSD", "reportedMetric": "sfGFP reporter fluorescence", "assayValue": 0.0459}
{"monomerSequence": "MNIQIGELAKRTACPVVTIRFYEQEGLLPPPGRSRGNFRLYGEEHVERLQFIRHCRSLDMPLSDVRTLLSYRKRPDQDCGEVIMLLDEHARQVESRIGALLELTHHLVELREACSGARPAQSCGILQGLSDCVCDTRGTTAHTSD", "reportedMetric": "sfGFP reporter fluorescence", "assayValue": 0.103}
{"monomerSequence": "MNIQIGELAKRTACPVVTIRFYEQEGLLPPPGRSRGNFRLYGEEHVERLQFIRHCRSLDMPLSKVRTLLSYRKRPDQDCGEVIMLLDEHARQVESRIGALLELKHHLVELREACSGARPAQSCGILQGLSDCVCDTRGTTAHRSD", "reportedMetric": "sfGFP reporter fluorescence", "assayValue": 1.07}
{"monomerSequence": "MNIQIGELAKRTACPVVTIRFYEQEGLLPPPGRSRGNFRLYGEEHVERLQFIRHCRSLDMPLSKVRTLLSYRKRPDQDCGEVFMLLDEHARQVESRIGALLELVHALVELREACSGARPAQSCGILQGLSDCVCDTRGTTAHRSD", "reportedMetric": "sfGFP reporter fluorescence", "assayValue": 0.398}
{"monomerSequence": "MNIQIGELAKRTACPVVTIRFYEQEGLLPPPGRSRGNFRLYGEEHVERLQFIRHCRSLDMPLSDVRTLLSYRKRPDQDCGEVFMLLDEHARQVESRIGALLELVHELVELREACSGARPAQSCGILQGLSDCVCDTRGTTAHTSD", "reportedMetric": "sfGFP reporter fluorescence", "assayValue": 0.051}
{"monomerSequence": "MNIQIGELAKRTACPVVTIRFYEQEGLLPPPGRSRGNFRLYGEEHVERLQFIRHCRSLDMPLSDVRTLLSYRKRPDQDCGEVIMLLDEHIRQVESRIGALLELTHELVELREACSGARPAQSCGILQGLSDCVCDTRGTTAHRSD", "reportedMetric": "sfGFP reporter fluorescence", "assayValue": 0.0576}
{"monomerSequence": "MNIQIGELAKRTACPVVTIRFYEQEGLLPPPGRSRGNFRLYGEEHVERLQFIRHCRSLDMPLSKVRTLLSYRKRPDQDCGEVIMLLDEHARQVESRIGALLELKHHLVELREACSGARPAQSCGILQGLSDCVCDTRGTTAHTSD", "reportedMetric": "sfGFP reporter fluorescence", "assayValue": 0.93}
{"monomerSequence": "MNIQIGELAKRTACPVVTIRFYEQEGLLPPPGRSRGNFRLYGEEHVERLQFIRHCRSLDMPLSKVRTLLSYRKRPDQDCGEVNMLLDEHARQVESRIGALLELVHELVELREACSGARPAQSCGILQGLSDCVCDTRGTTAHPSD", "reportedMetric": "sfGFP reporter fluorescence", "assayValue": 0.235}
{"monomerSequence": "MNIQIGELAKRTACPVVTIRFYEQEGLLPPPGRSRGNFRLYGEEHVERLQFIRHCRSLDMPLSKVRTLLSYRKRPDQDCGEVNMLLDEHARQVESRIGALLELVHALVELREACSGARPAQSCGILQGLSDCVCDTRGTTAHTSD", "reportedMetric": "sfGFP reporter fluorescence", "assayValue": 0.155}
